System: Saccharomyces cerevisiae
Assay: protein stability index of tFT-peptide fusion (C-terminal peptide) (PSI (0-1 scale)); higher = more stable (slower turnover)
Settings: genetic background: wild type; temperature: 37 C
Endpoint Name: protein stability index
Give a plain numeric answer without units written out.

{"columns": ["Seq", "Measured On", "Test Result"],
 "data": [
  ["WVGGVLLSVVGG", "Saccharomyces cerevisiae", 0.399],
  ["FVRSVFFCVSVG", "Saccharomyces cerevisiae", 0.5],
  ["GRWVLALCLVCG", "Saccharomyces cerevisiae", 0.273],
  ["FIRLTFLRLSCI", "Saccharomyces cerevisiae", 0.391],
  ["LLVCLGYFLFLG", "Saccharomyces cerevisiae", 0.453]
]}

**Q:** Can you share its protein stability index? I mean this sequence: LPPSPPAPLSRL
**A:** 0.857

**Q:** Can you share its protein stability index? I mean this sequence: LYSVLWFCFPLV
**A:** 0.55

**Q:** Can you share its protein stability index? I mean this sequence: RRVLVVPCIWHM
**A:** 0.416

---

Test system: Saccharomyces cerevisiae
Test: protein stability index of tFT-peptide fusion (C-terminal peptide) (PSI (0-1 scale)); higher = more stable (slower turnover)
Conditions: genetic background: wild type; temperature: 30 C
Endpoint Name: protein stability index
Give a plain numeric answer without units written out.

Illustrative cases are given below, each with its answer.
{"columns": ["Seq", "protein stability index"],
 "data": [
  ["LSEEDLLDDESS [YPF1 C-terminal 12 aa]", 0.698],
  ["STHIDHDKFSFF [CDC8 C-terminal 12 aa]", 0.694],
  ["INKRAVSNSKDV [RFT1 C-terminal 12 aa]", 0.727]
]}

**Q:** // fetch Saccharomyces cerevisiae protein stability index for EAAKKSEKKAKK [RPL34A C-terminal 12 aa]
**A:** 0.689

---

Tested on: Saccharomyces cerevisiae
Experiment: protein stability index of tFT-peptide fusion (C-terminal peptide) (PSI (0-1 scale)); higher = more stable (slower turnover)
Conditions: genetic background: cdc53-1; temperature: 37 C
Endpoint Name: protein stability index
Give a plain numeric answer without units written out.

Illustrative cases are given below, each with its answer.
{"columns": ["Seq", "Endpoint Name", "Test Result"],
 "data": [
  ["FFCRWGSTVTLL", "protein stability index", 0.696],
  ["VIQNKKKNKITS", "protein stability index", 0.688],
  ["WVSFYLLFFFSF", "protein stability index", 0.496]
]}

From here, focus on the item given below.
**Q:** Can you share its protein stability index? I mean this sequence: SFFVCAGFWVLC
**A:** 0.511

---

Measured protein stability index, listed per entry for reference.
Test system: Saccharomyces cerevisiae
Test: protein stability index of tFT-peptide fusion (C-terminal peptide) (PSI (0-1 scale)); higher = more stable (slower turnover)
Conditions: genetic background: wild type; temperature: 30 C
Give a plain numeric answer without units written out.

**Q:** Can you share its protein stability index? I mean this sequence: PAFGCTSRPFPG
**A:** 0.711

**Q:** Can you share its protein stability index? I mean this sequence: SFSFPFFFWGLL
**A:** 0.592

**Q:** Can you share its protein stability index? I mean this sequence: PPLPPQLVQDLL
**A:** 0.72

**Q:** Can you share its protein stability index? I mean this sequence: PPFLPLPPPPLP
**A:** 0.731

**Q:** Can you share its protein stability index? I mean this sequence: PPHFPLPLPPTP
**A:** 0.706

**Q:** Can you share its protein stability index? I mean this sequence: PSPLPPVPPPPP
**A:** 0.639

**Q:** Can you share its protein stability index? I mean this sequence: PKYYTTTDRLRV
**A:** 0.622

**Q:** Can you share its protein stability index? I mean this sequence: KKKKKKKKRARY
**A:** 0.657

**Q:** Can you share its protein stability index? I mean this sequence: GGPPFAPPPPPH
**A:** 0.71

**Q:** Can you share its protein stability index? I mean this sequence: QKKIKNKRQHRT
**A:** 0.795

**Q:** Can you share its protein stability index? I mean this sequence: KDCHPVSRYVRC
**A:** 0.707

**Q:** Can you share its protein stability index? I mean this sequence: VLRGSFPWLSPV
**A:** 0.708

**Q:** Can you share its protein stability index? I mean this sequence: RRFAKVALLSLR
**A:** 0.644

**Q:** Can you share its protein stability index? I mean this sequence: TTKKMVRIVSTV
**A:** 0.571

**Q:** Can you share its protein stability index? I mean this sequence: FFIGFGGVAGGG
**A:** 0.695

---

System: Saccharomyces cerevisiae
Assay: protein stability index of tFT-peptide fusion (C-terminal peptide) (PSI (0-1 scale)); higher = more stable (slower turnover)
Settings: genetic background: wild type; temperature: 30 C
Endpoint Name: protein stability index

Illustrative cases are given below, each with its answer.
{"columns": ["Seq", "Endpoint Name", "Test Result"],
 "data": [
  ["VHSPLVHILSCS", "protein stability index", 0.582],
  ["WVLRRVGTVVYL", "protein stability index", 0.585],
  ["CWGAGGRTVING", "protein stability index", 0.68],
  ["SNVHSYPEIRPG", "protein stability index", 0.681],
  ["GGVSKGLGARGR", "protein stability index", 0.601]
]}

**Q:** Can you share its protein stability index? I mean this sequence: SFRDRHRRLCDL
**A:** 0.596

**Q:** Can you share its protein stability index? I mean this sequence: PLLTFSPLPGLS
**A:** 0.696

**Q:** Can you share its protein stability index? I mean this sequence: GVVGLCLLGLGR
**A:** 0.701

**Q:** Can you share its protein stability index? I mean this sequence: PSWEPLPLPAVL
**A:** 0.707

**Q:** Can you share its protein stability index? I mean this sequence: GGAVSRVGEGGR
**A:** 0.785

---

Test system: Saccharomyces cerevisiae
Experiment: protein stability index of tFT-peptide fusion (C-terminal peptide) (PSI (0-1 scale)); higher = more stable (slower turnover)
Details: genetic background: wild type; temperature: 30 C
Endpoint Name: protein stability index
Give a plain numeric answer without units written out.

{"columns": ["Seq", "Measured On", "Endpoint Name", "Test Result"],
 "data": [
  ["GAVHQLGTCLFF", "Saccharomyces cerevisiae", "protein stability index", 0.671],
  ["REKSLKINKKKN", "Saccharomyces cerevisiae", "protein stability index", 0.676],
  ["RRRPPPLPPPHL", "Saccharomyces cerevisiae", "protein stability index", 0.63]
]}

**Q:** Can you share its protein stability index? I mean this sequence: PILPTSAPSDPR
**A:** 0.724

**Q:** Can you share its protein stability index? I mean this sequence: KRKKQKKNQQNR
**A:** 0.682

**Q:** Can you share its protein stability index? I mean this sequence: RLPLAPFSVTTH
**A:** 0.699

**Q:** Can you share its protein stability index? I mean this sequence: CFFFCSLFLSFL
**A:** 0.366

**Q:** Can you share its protein stability index? I mean this sequence: ANQGRRPWRGMC
**A:** 0.585

**Q:** Can you share its protein stability index? I mean this sequence: FCGFTSLCVGDL
**A:** 0.731

**Q:** Can you share its protein stability index? I mean this sequence: PHPPLPPLLPPA
**A:** 0.741

**Q:** Can you share its protein stability index? I mean this sequence: GLSIVCRHYEES
**A:** 0.685

**Q:** Can you share its protein stability index? I mean this sequence: VRAHARPTKGKP
**A:** 0.682

**Q:** Can you share its protein stability index? I mean this sequence: AGTLLLGYGILA
**A:** 0.438

---

System: Saccharomyces cerevisiae
Test: protein stability index of tFT-peptide fusion (C-terminal peptide) (PSI (0-1 scale)); higher = more stable (slower turnover)
Conditions: genetic background: das1 deletion; temperature: 30 C
Endpoint Name: protein stability index
Give a plain numeric answer without units written out.

Illustrative cases are given below, each with its answer.
{"columns": ["Seq", "protein stability index"],
 "data": [
  ["STQHKSTTSFTQ [TGL4 C-terminal 12 aa]", 0.716],
  ["DVLDDLYRKLQR [CSE2 C-terminal 12 aa]", 0.714],
  ["QLISTPIKDNEH [KIC1 C-terminal 12 aa]", 0.693]
]}

**Q:** Can you share its protein stability index? I mean this sequence: GRENGDVNIWAV [MDV1 C-terminal 12 aa]
**A:** 0.702

**Q:** Can you share its protein stability index? I mean this sequence: QESTLETTQKED [AFI1 C-terminal 12 aa]
**A:** 0.703

**Q:** Can you share its protein stability index? I mean this sequence: VGKKLETFKKTN [WBP1 C-terminal 12 aa]
**A:** 0.717

**Q:** Can you share its protein stability index? I mean this sequence: RGRIAAQKRIAA [RPL17A C-terminal 12 aa]
**A:** 0.667

**Q:** Can you share its protein stability index? I mean this sequence: KLDEAEMQGLIM [YMR158C-A C-terminal 12 aa]
**A:** 0.69
